Molecular target: dopaminergic D2 receptor (Homo sapiens, UniProt P14416)
Sequence (P14416 1-414 isoform P14416-2): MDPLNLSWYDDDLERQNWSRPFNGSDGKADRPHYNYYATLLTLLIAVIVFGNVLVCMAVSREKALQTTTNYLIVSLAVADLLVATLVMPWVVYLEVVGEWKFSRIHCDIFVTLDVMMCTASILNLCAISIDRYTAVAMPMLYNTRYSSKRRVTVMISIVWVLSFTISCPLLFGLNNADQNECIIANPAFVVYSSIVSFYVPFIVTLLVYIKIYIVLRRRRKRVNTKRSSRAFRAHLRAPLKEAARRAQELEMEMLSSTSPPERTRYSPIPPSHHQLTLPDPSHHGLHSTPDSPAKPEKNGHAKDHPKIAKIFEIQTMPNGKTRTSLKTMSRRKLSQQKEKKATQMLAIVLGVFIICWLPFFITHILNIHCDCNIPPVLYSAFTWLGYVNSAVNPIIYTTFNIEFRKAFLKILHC
Experiment: Binding assay D2S (h), [3H]methyl-spiperone, HEK-293 cells
Set-up: expressed in transfected cells; host or cells: HEK-293 cells
Settings: read-out: D2 [%]
Overview of reported inhibition at 1 µM across a group of compounds:
Readout label: inhibition at 1 µM (%)

INSERT INTO assay_data (cpd_smiles, display_unit, result_number) VALUES
  ('N#Cc1cccc(S(=O)(=O)NCCCCN2CCC(c3noc4cc(F)ccc34)CC2)c1', '%', 106),
  ('O=S(=O)(NCCCN1CCC(c2noc3cc(F)ccc23)CC1)c1ccc(F)c(F)c1', '%', 89),
  ('Cn1ccc2c(S(=O)(=O)NCCCCN3CCC(c4noc5cc(F)ccc45)CC3)cccc21', '%', 96),
  ('O=S(=O)(NCCCCN1CCN(c2cccc3[nH]ccc23)CC1)c1ccc(F)c(F)c1', '%', 94),
  ('O=S(=O)(NCCCN1CCC(c2noc3cc(F)ccc23)CC1)c1ccc(Cl)s1', '%', 98),
  ('O=S(=O)(NCCCN1CCN(c2nsc3ccccc23)CC1)c1ccc(-c2ccccc2)cc1', '%', 99),
  ('O=S(=O)(NCCCCN1CCN(c2cccc3c2OCCO3)CC1)c1ccc(F)c(F)c1', '%', 50),
  ('Cc1c(S(=O)(=O)NCCCCN2CCN(c3nsc4ccccc34)CC2)sc2ccc(F)cc12', '%', 99);

###

System: adrenergic α1 receptor
Assay: Binding assay α1 (non-selective), [3H]prazosin, rat cerebral cortex
Settings: percent inhibition of control specific binding; compounds tested at 1×10^−6 M
Readout label: α1 [%] (%)

INSERT INTO results (cpd_smiles, target_desc, result_number) VALUES
  ('O=S(=O)(NCCCN1CCN(c2nsc3ccccc23)CC1)c1ccc2c(c1)OCO2', 'adrenergic α1 receptor', 97),
  ('Cc1cccc(S(=O)(=O)NCCCCN2CCC(c3noc4cc(F)ccc34)CC2)c1', 'adrenergic α1 receptor', 99),
  ('O=S(=O)(NCCCN1CCN(c2nsc3ccccc23)CC1)c1ccc(F)c(Cl)c1', 'adrenergic α1 receptor', 93),
  ('O=S(=O)(NCCCN1CCN(c2nsc3ccccc23)CC1)c1ccc(F)c(F)c1', 'adrenergic α1 receptor', 99),
  ('Cc1cccc(S(=O)(=O)NCCCN2CCN(c3nsc4ccccc34)CC2)c1', 'adrenergic α1 receptor', 98),
  ('N#Cc1cccc(S(=O)(=O)NCCCN2CCN(c3nsc4ccccc34)CC2)c1', 'adrenergic α1 receptor', 94),
  ('O=c1[nH]c2ccc(S(=O)(=O)NCCCCN3CCN(c4noc5ccccc45)CC3)cc2o1', 'adrenergic α1 receptor', 101),
  ('O=S(=O)(NCCCCN1CCN(c2nsc3ccccc23)CC1)c1ccc(OC(F)(F)F)cc1', 'adrenergic α1 receptor', 92),
  ('O=S(=O)(NCCCCN1CCN(c2cccc3[nH]ccc23)CC1)c1cc2ccccc2s1', 'adrenergic α1 receptor', 100),
  ('O=S(=O)(NCCCN1CCN(c2nsc3ccccc23)CC1)c1ccc(Cl)c(Cl)c1', 'adrenergic α1 receptor', 95),
  ('Cc1[nH]c2ccc(Cl)cc2c1C1=CCN(CCNS(=O)(=O)c2ccc(Cl)cc2)CC1', 'adrenergic α1 receptor', '−4'),
  ('Cn1ccc2c(S(=O)(=O)NCCCN3CCC(c4noc5cc(F)ccc45)CC3)cccc21', 'adrenergic α1 receptor', 86),
  ('O=c1[nH]c2cccc(N3CCN(CCCNS(=O)(=O)c4cccc5ccccc45)CC3)c2[nH]1', 'adrenergic α1 receptor', 91),
  ('O=S(=O)(NCCCCN1CCN(c2cccc3c2OCCO3)CC1)c1ccc(-c2ccccc2)cc1', 'adrenergic α1 receptor', 84),
  ('Cc1c(S(=O)(=O)NCCCCN2CCN(c3cccc4[nH]ccc34)CC2)sc2ccc(F)cc12', 'adrenergic α1 receptor', 87),
  ('O=S(=O)(NCCCN1CCN(c2cccc3c2OCCO3)CC1)c1ccc(-c2ccccc2)cc1', 'adrenergic α1 receptor', 78),
  ('N#Cc1cccc(S(=O)(=O)NCCCCN2CCN(c3cccc4[nH]ccc34)CC2)c1', 'adrenergic α1 receptor', 96),
  ('O=S(=O)(NCCCN1CCC(c2noc3cc(F)ccc23)CC1)c1ccc(C(F)(F)F)cc1', 'adrenergic α1 receptor', 105),
  ('O=c1[nH]c2cccc(N3CCN(CCCCNS(=O)(=O)c4ccc(F)cc4)CC3)c2[nH]1', 'adrenergic α1 receptor', 82),
  ('O=S(=O)(NCCN1CCC(c2noc3cc(F)ccc23)CC1)c1cccc2ccccc12', 'adrenergic α1 receptor', 97),
  ('O=S(=O)(NCCCCN1CCN(c2nsc3ccccc23)CC1)c1cccc(Cl)c1', 'adrenergic α1 receptor', 94),
  ('Cc1[nH]c2ccc(Cl)cc2c1C1=CCN(CCCNS(=O)(=O)c2cccc(F)c2)CC1', 'adrenergic α1 receptor', 17),
  ('Cc1[nH]c2ccc(Cl)cc2c1C1=CCN(CCCNS(=O)(=O)c2cccc3ccccc23)CC1', 'adrenergic α1 receptor', 16),
  ('O=S(=O)(NCCCCN1CCN(c2nsc3ccccc23)CC1)c1ccc(Cl)s1', 'adrenergic α1 receptor', 96),
  ('O=S(=O)(NCCCN1CCN(c2nsc3ccccc23)CC1)c1ccc(C(F)(F)F)cc1', 'adrenergic α1 receptor', 94),
  ('O=S(=O)(NCCCCN1CCN(c2nsc3ccccc23)CC1)c1cc2ccc(Cl)cc2s1', 'adrenergic α1 receptor', 93),
  ('O=S(=O)(NCCCN1CCN(c2nsc3ccccc23)CC1)c1cccc(Cl)c1', 'adrenergic α1 receptor', 96),
  ('O=S(=O)(NCCCN1CCN(c2cccc3c2OCCO3)CC1)c1cccc(F)c1', 'adrenergic α1 receptor', 81),
  ('O=S(=O)(NCCCCN1CCC(c2noc3cc(F)ccc23)CC1)c1ccc(Cl)cc1', 'adrenergic α1 receptor', 101),
  ('Cc1c(S(=O)(=O)NCCCN2CCN(c3nsc4ccccc34)CC2)sc2ccc(F)cc12', 'adrenergic α1 receptor', 93),
  ('O=c1[nH]c2ccc(S(=O)(=O)NCCN3CCN(c4nsc5ccccc45)CC3)cc2o1', 'adrenergic α1 receptor', 67),
  ('O=S(=O)(NCCCCN1CCN(c2noc3ccccc23)CC1)c1cnc2ccccn12', 'adrenergic α1 receptor', 98),
  ('O=S(=O)(NCCCCN1CCN(c2nsc3ccccc23)CC1)c1cccc2ccccc12', 'adrenergic α1 receptor', 99);

###

Biological target: dopaminergic D2 receptor (Homo sapiens)
Assay: Binding assay D2S (h), [3H]methyl-spiperone, HEK-293 cells
Set-up: expressed in transfected cells; host or cells: HEK-293 cells
Settings: read-out: D2 [%]
Readout label: inhibition at 1 µM (%)

INSERT INTO results (cpd_smiles, display_unit, result_number) VALUES
  ('O=S(=O)(NCCCN1CCN(c2nsc3ccccc23)CC1)c1c[nH]c2ncccc12', '%', 74),
  ('Cc1[nH]c2ccc(Cl)cc2c1C1=CCN(CCCNS(=O)(=O)c2cccc(O)c2)CC1', '%', 98),
  ('Cc1[nH]c2ccc(Cl)cc2c1C1=CCN(CCCNS(=O)(=O)c2ccc(F)cc2)CC1', '%', 22),
  ('O=S(=O)(NCCCN1CCC(c2noc3cc(F)ccc23)CC1)c1cccc(C(F)(F)F)c1', '%', 105),
  ('O=S(=O)(NCCCCN1CCC(c2noc3cc(F)ccc23)CC1)c1ccc(F)cc1', '%', 105),
  ('N#Cc1cccc(S(=O)(=O)NCCCCN2CCN(c3nsc4ccccc34)CC2)c1', '%', 102),
  ('O=S(=O)(NCCCCN1CCC(c2noc3cc(F)ccc23)CC1)c1cccc2scnc12', '%', 67),
  ('O=S(=O)(NCCCCN1CCN(c2noc3ccccc23)CC1)c1ccc2ccccc2c1', '%', 99);

###

Overview of reported inhibition at 1 µM across a group of compounds:
Target: serotoninergic 5-HT2A receptor (Homo sapiens)
Sequence (P28223 whole entry): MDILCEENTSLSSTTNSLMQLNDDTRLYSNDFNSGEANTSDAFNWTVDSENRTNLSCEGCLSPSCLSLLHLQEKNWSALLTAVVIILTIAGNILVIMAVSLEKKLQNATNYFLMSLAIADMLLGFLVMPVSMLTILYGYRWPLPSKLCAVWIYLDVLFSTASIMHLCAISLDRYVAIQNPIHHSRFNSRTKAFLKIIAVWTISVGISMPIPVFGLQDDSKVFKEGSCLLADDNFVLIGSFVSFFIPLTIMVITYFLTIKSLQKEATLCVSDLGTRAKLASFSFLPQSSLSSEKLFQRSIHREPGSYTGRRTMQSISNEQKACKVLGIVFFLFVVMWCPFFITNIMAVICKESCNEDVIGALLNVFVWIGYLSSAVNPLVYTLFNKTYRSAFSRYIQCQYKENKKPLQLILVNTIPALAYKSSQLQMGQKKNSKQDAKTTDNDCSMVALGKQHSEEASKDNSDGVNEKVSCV
Experiment: Binding assay 5-HT2A (h), [3H]ketanserin, HEK-293 cells
Design: expressed in transfected cells; host or cells: HEK-293 cells
Settings: read-out: 5-HT2A
Readout label: inhibition at 1 µM (%)

INSERT INTO assay_data (cpd_smiles, result_number) VALUES
  ('O=S(=O)(NCCCN1CCC(c2noc3cc(F)ccc23)CC1)c1ccc(Cl)s1', 102),
  ('O=S(=O)(NCCCN1CCC(c2noc3cc(F)ccc23)CC1)c1ccc(OC(F)(F)F)cc1', 100),
  ('Cn1ccc2cc(S(=O)(=O)NCCCN3CCC(c4noc5cc(F)ccc45)CC3)ccc21', 105),
  ('O=S(=O)(NCCCCN1CCC(c2noc3cc(F)ccc23)CC1)c1ccc(Br)cc1', 100),
  ('O=S(=O)(NCCCN1CCN(c2cccc3c2OCCO3)CC1)c1cccc2ccccc12', 74),
  ('O=S(=O)(NCCCN1CCN(c2nsc3ccccc23)CC1)c1cccc(Br)c1', 101),
  ('O=S(=O)(NCCCCN1CCN(c2noc3ccccc23)CC1)c1cnc2ccccn12', 89),
  ('O=S(=O)(NCCCN1CCN(c2nsc3ccccc23)CC1)c1cc2ccccc2s1', 102),
  ('O=S(=O)(NCCCN1CCC(c2noc3cc(F)ccc23)CC1)c1cccc(C(F)(F)F)c1', 97),
  ('Cc1[nH]c2ccc(Cl)cc2c1C1=CCN(CCCCNS(=O)(=O)c2cccc(O)c2)CC1', 79),
  ('O=S(=O)(NCCCCN1CCN(c2cccc3c2OCCO3)CC1)c1cc2ccc(Cl)cc2s1', 79),
  ('O=S(=O)(NCCCN1CCC(c2noc3cc(F)ccc23)CC1)c1cccc2ccccc12', 100),
  ('O=S(=O)(NCCCCN1CCC(c2noc3cc(F)ccc23)CC1)c1cccs1', 102),
  ('O=S(=O)(NCCCN1CCN(c2cccc3c2OCCO3)CC1)c1ccc2ccccc2c1', 28),
  ('Cc1[nH]c2ccc(Cl)cc2c1C1=CCN(CCCNS(=O)(=O)c2cccc(F)c2)CC1', 68),
  ('O=S(=O)(NCCCN1CCC(c2noc3cc(F)ccc23)CC1)c1ccc2c(c1)OCO2', 86),
  ('O=S(=O)(NCCCN1CCN(c2nsc3ccccc23)CC1)c1ccc2c(c1)OCO2', 101),
  ('O=S(=O)(NCCCN1CCC(c2noc3cc(F)ccc23)CC1)c1ccc(Cl)c(Cl)c1', 91),
  ('O=c1[nH]c2cccc(N3CCN(CCCNS(=O)(=O)c4ccc5ccccc5c4)CC3)c2[nH]1', 66),
  ('O=S(=O)(NCCCCN1CCC(c2noc3cc(F)ccc23)CC1)c1ccc2c(c1)CCO2', 98),
  ('O=S(=O)(NCCCCN1CCN(c2nsc3ccccc23)CC1)c1cc2ccc(Cl)cc2s1', 101),
  ('O=S(=O)(NCCCCN1CCN(c2nsc3ccccc23)CC1)c1ccc(Cl)cc1', 90),
  ('O=S(=O)(NCCCCN1CCC(c2noc3cc(F)ccc23)CC1)c1ccsc1', 99),
  ('O=c1[nH]c2ccc(S(=O)(=O)NCCCN3CCN(c4nsc5ccccc45)CC3)cc2o1', 100),
  ('Cc1[nH]c2ccc(Cl)cc2c1C1=CCN(CCCCNS(=O)(=O)c2ccc(Cl)cc2)CC1', 51),
  ('O=S(=O)(NCCCCN1CCC(c2noc3cc(F)ccc23)CC1)c1ccc(OC(F)(F)F)cc1', 76),
  ('O=S(=O)(NCCCCN1CCN(c2noc3ccccc23)CC1)c1cccc(F)c1', 89),
  ('O=S(=O)(NCCCN1CCN(c2nsc3ccccc23)CC1)c1ccc(-c2ccccc2)cc1', 102),
  ('O=S(=O)(NCCCCN1CCN(c2cccc3[nH]ccc23)CC1)c1cccc(F)c1', 89),
  ('O=S(=O)(NCCCCN1CCN(c2nsc3ccccc23)CC1)c1ccc(F)c(Cl)c1', 100),
  ('CC(C)(C)c1ccc(S(=O)(=O)NCCCCN2CCN(c3nsc4ccccc34)CC2)cc1', 100),
  ('N#Cc1cccc(S(=O)(=O)NCCCCN2CCN(c3noc4ccccc34)CC2)c1', 78),
  ('O=S(=O)(NCCCCN1CCC(c2noc3cc(F)ccc23)CC1)c1ccc(-c2ccccc2)cc1', 96);

Data provenance: patent US8822517B2
